assay: BET inhibitor-based combinations targeting novel dependencies in MECOM-rearranged (r) AML: SET-2 cell line (AID 2202231); details: SET-2 AML cells viability, CellTiter-Glo luminescence, 48 h; further: potency means the concentration at half of the fitted maximal effect; nearly all actives have a fitted effect of over 35% in size
Inconclusive results are not listed. Calls of active or inactive are those of the source. The call rests on the fitted dose curve; in most records, active means well fitted inhibition curve with a large enough effect; inconclusive means small, poorly fitted or top-dose-only effect; inactive means no such curve, though single readings can be large or run the other way.
Observable: Potency

Problem: Reported Potency for Cc1ccc(NC(=O)NCc2ccc3c(c2)CN(C2CCC(=O)NC2=O)C3=O)cc1Cl (stereo unspecified) : what is it?
Solution: 0.0295 µM (active)

Problem: Quick one: `CC[C@H](CO)Nc1nc(NCc2ccccc2)c2ncn(C(C)C)c2n1`
Solution: 26.3 µM (active)

Problem: Then this molecule: `CCCCC(=O)OCC(=O)[C@]1(O)Cc2c(O)c3c(c(O)c2[C@@H](O[C@H]2C[C@H](NC(=O)C(F)(F)F)[C@H](O)[C@H](C)O2)C1)C(=O)c1c(OC)cccc1C3=O`
Solution: 4.17 µM (active)

Problem: Likewise for `CCN(C)S(=O)(=O)Nc1ccc(F)c(C(=O)c2c[nH]c3ncc(-c4cnc(C5CC5)nc4)cc23)c1F` ?
Solution: 18.6 µM (active)

Problem: Subsequent entry: `CC(=O)N1c2ccc(-c3ccc(C(=O)O)cc3)cc2[C@H](Nc2ccc(Cl)cc2)C[C@@H]1C`
Solution: 0.372 µM (active)

Problem: And what about the molecule `C[C@H]1[C@@H](OC(=O)CCC(=O)O)O[C@@H]2O[C@@]3(C)CC[C@@H]4[C@H](C)CC[C@@H]1[C@@]24OO3` ?
Solution: 3.72 µM (active)

Problem: Would you kindly repeat that for `O=S(=O)(Nc1ccc(-c2cccnc2)c2cccnc12)c1cccc(C(F)(F)F)c1` ?
Solution: 10.5 µM (active)

Problem: Same read-out for `C=CC(=O)N1CCc2ccc(-n3c(=O)ccc4cnc5ccc(-c6cnn(C)c6)cc5c43)cc21` ?
Solution: 0.456 µM (active)

Problem: Consider next the molecule N#CC(c1ccnc(NCCc2cccnc2)n1)c1nc2ccccc2s1 (stereo unspecified) in the same way.
Solution: 18.6 µM (active)

Problem: Next molecule: `O=C(CCCCCCC(=O)N/N=C/c1ccc(N(c2ccccc2)c2ccccc2)cc1)NO`
Solution: 7.42 µM (active)

Problem: Try this molecule too: `NC(=O)C1=C(O)[C@@]2(O)C(=O)C3=C(O)c4c(O)cccc4C[C@H]3C[C@H]2CC1=O`
Solution: 4.68 µM (active)

Problem: `COc1ccc(N2C(=O)N(c3c(C)cccc3Cl)Cc3cnc(Nc4ccc(C5CCN(C)CC5)cc4OC)nc32)nc1` ?
Solution: 16.6 µM (active)

Problem: And for `C/C=C1\NC(=O)[C@H]2CSSCC/C=C\[C@H](CC(=O)N[C@H](C(C)C)C(=O)N2)OC(=O)[C@H](C(C)C)NC1=O` ?
Solution: 0.0295 µM (active)

Problem: What do you have for `Cc1cnc(NC(=O)Nc2cc(Br)c(C)cc2OC[C@@H]2CNCCO2)cn1` ?
Solution: 4.17 µM (active)

Problem: Can you check `O=C(NO)c1cnc(NC2(c3ccccc3)CC2)nc1` next?
Solution: 6.61 µM (active)

Problem: Ok, now `C=CC(=O)Nc1ccc2ncnc(Nc3ccc(OCc4cccc(F)c4)c(Cl)c3)c2c1`
Solution: 10.5 µM (active)

Problem: Now consider `CC[C@@]1(O)C(=O)OCc2c1cc1n(c2=O)Cc2c-1nc1ccccc1c2CCNC(C)C` .
Solution: 0.0166 µM (active)

Problem: Now try `C[C@@H]1CC(=O)Nc2cccc(-c3ccc4c(c3)c(-c3cnn(C)c3)nn4C)c2N1` .
Solution: 6.61 µM (active)

Problem: Cool, now `Cc1nnc(C[C@@H]2C=C(c3ccc(Cl)cc3)c3ccccc3-n3c(C)nnc32)o1`
Solution: 0.662 µM (active)

Problem: Likewise for `O=c1cc(N2CCOCC2)oc2c(-c3ccc4c(c3)OCCO4)csc12` ?
Solution: 3.32 µM (active)

Problem: Query `CCN1CCN(Cc2ccc(-c3cc4c(N[C@H](C)c5ccccc5)ncnc4[nH]3)cc2)CC1` next
Solution: 23.5 µM (active)

Problem: Param item: `Cc1cc(Nc2ncnc3ccc(NC4=NC(C)(C)CO4)cc23)ccc1Oc1ccn2ncnc2c1`
Solution: 20.9 µM (active)

Problem: Moving on to `Cc1cc(C(=O)Nc2cc(Nc3ccc4c(/C=C/c5ccccn5)n[nH]c4c3)ccc2F)n(C)n1`
Solution: 18.6 µM (active)

Problem: Another: `COc1cc(Nc2ncc(F)c(Nc3ccc4c(n3)N(COP(=O)(O)O)C(=O)C(C)(C)O4)n2)cc(OC)c1OC`
Solution: 13.2 µM (active)

Problem: Again, but for Nc1ccn([C@@H]2O[C@H](CO)[C@@H](O)C2O)c(=O)n1 (stereo partly specified)
Solution: 0.332 µM (active)

Problem: Next record, please: `COc1ccc(/C=C\c2cc(OC)c(OC)c(OC)c2)cc1O`
Solution: 0.0148 µM (active)

Problem: Please give the result for `COc1cccc2c1C(=O)c1c(O)c3c(c(O)c1C2=O)C[C@@](O)(/C(CO)=N/NC(=O)CCCCCN1C(=O)C=CC1=O)C[C@@H]3O[C@H]1C[C@H](N)[C@H](O)[C@H](C)O1` too.
Solution: 2.95 µM (active)

Problem: Cool, now `CC[C@@H]1[C@H](F)C(=O)N[C@@H]1COc1nccc2cc(C(N)=O)c(OC)cc12`
Solution: 14.8 µM (active)

Problem: What do you have for `CN(C)c1ccc(Nc2nc(N)n(C(=O)c3c(F)cccc3F)n2)cc1` ?
Solution: 18.6 µM (active)

Problem: Here is the next molecule: `CN1CCN(c2ccc3nc(-c4cc(C(C)(C)C)c(OCCCC(=O)NCCCN=[N+]=[N-])c(C(C)(C)C)c4)[nH]c3c2)CC1`
Solution: 10.5 µM (active)

Problem: Lookup Nc1nc(F)nc2c1ncn2C1OC(COP(=O)(O)O)C(O)C1O (stereo unspecified)
Solution: 4.68 µM (active)

Problem: What do we get for `CCNCCS(=O)(=O)NC[C@@]1(c2ccccc2)SC(NC(=O)C(C)(C)C)=NN1C(=O)C(C)(C)C` ?
Solution: 0.118 µM (active)

Problem: Also need C=C1CCC2[C@](C)(CO)C(O)CC[C@]2(C)C1C/C=C1/C(=O)OCC1O (stereo partly specified) , thanks.
Solution: 14.8 µM (active)

Problem: Please do the same for `O=c1[nH]c(=O)n([C@H]2C[C@H](O)[C@@H](CO)O2)cc1C(F)(F)F` as well.
Solution: 5.9 µM (active)

Problem: What do you have for COc1ccc2c(c1OC)C(=O)OC2[C@H]1c2c(cc3c(c2OC)OCO3)CCN1C (stereo partly specified) ?
Solution: 16.6 µM (active)

Problem: # repeat for `CC(=O)c1cc2c(o1)C(=O)c1ccccc1C2=O`
Solution: 2.63 µM (active)
